test: NCI Yeast Anticancer Drug Screen. Data for the mec2-1 strain (AID 157); details: S. cerevisiae mec2-1 strain, at 50.0 µM, hits give high values
The panel holds about 79,000 compounds, 15% with a hit somewhere; the sample as a whole holds those more often.
# growth inhibition per record follows
Report the figure in % without appending any unit label.

Previously resolved entries follow.
>  <COMPOUND>
CC1(C)CCCC/C1=N\NC(N)=O

>  <growth inhibition, %>
-20.4

$$$$
>  <COMPOUND>
O=c1[nH]c2ccccc2c(O)c1-c1ccccc1

>  <growth inhibition, %>
0.8

$$$$
>  <COMPOUND>
COc1ccc(CC(N)C(=O)NC2C(CO)OC(n3cnc4c(N)ncnc43)C2O)cc1 (stereo not drawn)

>  <growth inhibition, %>
-28.6

$$$$
>  <COMPOUND>
C=CCC(OC(=O)CC)c1ccc2c(c1)OCO2 (stereo not drawn)

>  <growth inhibition, %>
-11.6

$$$$

Prompt: May I ask what growth inhibition has been recorded for Nc1ncnc2c1ncn2CCC(COCc1ccccc1)COCc1ccccc1 ?
Response: 0.4

Prompt: Next: CCN(CC)CC(=O)Nc1c(C(N)=O)nnn1Cc1cc(Cl)c(C(=O)c2ccc(Cl)cc2)c(Cl)c1
Response: -14.5

Prompt: Next: CC(C)CCC[C@@H](C)[C@H]1CC[C@@]2(C)[C@@H]3CC[C@@H]4C(=O)CC[C@]4(C)[C@H]3CC[C@]12C
Response: 1.5
